Sourced from ChEMBL document CHEMBL1136062

System: Enterococcus faecium
Assay: Tested in vitro for its antibacterial activity against vancomycin resistant Enterococcus faecium (CL4931)
Type: functional
METRIC: MIC

COMPOUND	ENDPOINT VALUE
CN[C@H](CC(C)C)C(=O)N[C@H]1C(=O)N[C@@H](CC(N)=O)C(=O)N[C@H]2C(=O)N[C@H]3C(=O)N[C@H](C(=O)N[C@H](C(=O)O)c4cc(O)cc(O)c4-c4cc3ccc4O)[C@H](O)c3ccc(c(Cl)c3)Oc3cc2cc(c3OC2OC(C[N+](C)(C)C)C(O)C(O)C2OC2CC(C)(NCc3ccc(OCc4ccc(Cl)c(Cl)c4)cc3)C(O)C(C)O2)Oc2ccc(cc2Cl)[C@H]1O (stereo partly drawn)	> 64 µg/mL
CN[C@H](CC(C)C)C(=O)N[C@H]1C(=O)N[C@@H](CC(N)=O)C(=O)N[C@H]2C(=O)N[C@H]3C(=O)N[C@H](C(=O)N[C@H](C(=O)O)c4cc(O)cc(O)c4-c4cc3ccc4O)[C@H](O)c3ccc(c(Cl)c3)Oc3cc2cc(c3OC2OC(C[N+](C)(C)Cc3ccccc3)C(O)C(O)C2OC2CC(C)(NCc3ccc(OCc4ccc(Cl)c(Cl)c4)cc3)C(O)C(C)O2)Oc2ccc(cc2Cl)[C@H]1O (stereo partly drawn)	> 64 µg/mL
CN[C@H](CC(C)C)C(=O)N[C@H]1C(=O)N[C@@H](CC(N)=O)C(=O)N[C@H]2C(=O)N[C@H]3C(=O)N[C@H](C(=O)N[C@H](C(=O)O)c4cc(O)cc(O)c4-c4cc3ccc4O)[C@H](O)c3ccc(c(Cl)c3)Oc3cc2cc(c3OC2OC(C[N+]34CCN(CC3)CC4)C(O)C(O)C2OC2CC(C)(NCc3ccc(OCc4ccc(Cl)c(Cl)c4)cc3)C(O)C(C)O2)Oc2ccc(cc2Cl)[C@H]1O (stereo partly drawn)	> 32 µg/mL
